# TARGET ENTITY: chimeric BTLA of humanised-BTLA mice (human extracellular region, murine transmembrane and signaling … (human; mouse, UniProt Q7TSA3 184-306, limits assumed)
# Sequence (Q7TSA3 other isoform, or with tags, fused parts or gaps mutant limits assumed): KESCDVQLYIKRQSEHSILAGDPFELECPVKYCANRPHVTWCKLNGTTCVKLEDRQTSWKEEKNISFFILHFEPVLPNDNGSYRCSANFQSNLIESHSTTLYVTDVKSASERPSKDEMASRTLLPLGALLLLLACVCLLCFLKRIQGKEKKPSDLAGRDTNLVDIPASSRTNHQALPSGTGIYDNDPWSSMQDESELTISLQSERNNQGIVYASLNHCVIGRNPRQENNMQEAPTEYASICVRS
# ASSAY: cell-based or functional assay
Let's look at some binders and their measured AntiCD3/CD28 (CD69+ CD4 T cells) repeat 1, % inhibition.
Your answer should be a plain number; it is taken to be in %.

BINDER	ASSAY VALUE
21C7 (antibody, IgG1, V domains shown) VH: QIQLQQSGPELVKPGASVKISCKASGYAFSSSWMNWVKKRPGKGLEWIGRIYPGDGDANYNGKFKGKATLTADKSSSTAYMQLSSLTSEDSAVYFCAGEGHYYGSGYRWYLDVWGTGTTVTVSS VL: DIQMTQSPASLSVSVGETVTITCRASENIYSNLAWYQQKQGKSPQLLVYAATNLADGVPSRFSGSGSGTQYSLKINSLQSEDFGSYYCQHFRGAPFTFGSGTKLEIK	39

Below: the item to evaluate.
Please fill in: AntiCD3/CD28 (CD69+ CD4 T cells) repeat 1, % inhibition reported for 11.5.1 (antibody, IgG1, V domains shown) VH: EVQLQESGPSLVKPSQTLSLTCSVTGDSITSAYWNWIRKFPGNKLEYMGYISYSGSTYFNPSLKSRISITRNTSKNQYYLQLNSVTTEDTATYYCARSHYYGYYFDYWGHGTTLTVSS VL: DIVLTQSPASLAVSLGQRATISCRASETIDSYGDSLMHWYQQKAGQPPKLLIYRASNLESGIPARFSGSGSRTDFTLTINPVEADDVATYYCQQTDEDPYTFGGGTKLEIK = 50
